Where do the numbers come from? From patent US7763615B2.

test system: SK-BR3; assay: cells; assay type: cell-based; settings: Homo sapiens, SK-BR-3, 48 h, SK-BR3, 48 hours exposure, SRB
Recorded measurements of GI50, one per entry
Give the number; nM is assumed, so skip it.

Sample answers from the record:
INSERT INTO assay_data (molecule, numeric_readout) VALUES
  ('COc1c(C)cc2c(c1O)[C@@H]1C3[C@@H]4SC[C@]5(NCCc6c5[nH]c5ccccc65)C(=O)COC[C@@H](c5c6c(c(C)c(OC(=O)C(F)(F)C(F)(F)C(F)(F)F)c54)OCO6)N3[C@@H](C#N)[C@H](C2)N1C (stereo partly drawn)', 39.8),
  ('C=COC(=O)Oc1c(C)c2c(c3c1[C@H]1SC[C@]4(NCCC5c6ccccc6NC54)C(=O)OC[C@@H]3N3C1[C@H]1c4c(cc(C)c(OC)c4OC(=O)OC=C)C[C@@H]([C@@H]3C#N)N1C)OCO2 (stereo partly drawn)', 29),
  ('COc1c(C)cc2c(c1O)[C@@H]1C3[C@@H]4SC[C@]5(C(=O)COC[C@@H](c6c7c(c(C)c(OC(C)=O)c64)OCO7)N3[C@@H](C#N)[C@H](C2)N1C)c1[nH]c2ccccc2c1CCN5C (stereo partly drawn)', 217),
  ('COc1c(C)cc2c(c1O)[C@@H]1C3[C@@H]4SC[C@]5(NCCc6c5[nH]c5ccc(F)cc65)C(=O)COC[C@@H](c5c6c(c(C)c(OC(C)=O)c54)OCO6)N3[C@@H](O)[C@H](C2)N1C (stereo partly drawn)', 2.21);

[ask] Recorded GI50 for COc1c(C)cc2c(c1O)[C@@H]1C3[C@@H]4SC[C@]5(NCCc6c5[nH]c5c(C)cccc65)C(=O)COC[C@@H](c5c6c(c(C)c(OC(C)=O)c54)OCO6)N3[C@@H](O)[C@H](C2)N1C (stereo partly drawn) , please?
[reply] 11.8

[ask] Thanks! And COc1c(C)cc2c(c1O)[C@@H]1C3[C@@H]4SC[C@]5(NCCc6c5[nH]c5ccccc65)C(=O)COC[C@@H](c5c6c(c(C)c(OC(=O)OC(C)(C)C)c54)OCO6)N3[C@@H](C#N)[C@H](C2)N1C (stereo partly drawn) ?
[reply] 67.6

---

The following compounds are shown together with reported log10 CC50 values.
tested on: A549; experiment: cells; assay type: cell-based; conditions: read-out: LC50; A549, 48 hours exposure, SRB
Field: value | Transform: log10 | Quantity: CC50 | Unit: nM

Some compounds with recorded log10 CC50:
INSERT INTO results (compound, measured_on, numeric_readout) VALUES
  ('COc1c(C)cc2c(c1O)[C@@H]1C3[C@@H]4SC[C@]5(NC(C)Cc6c5[nH]c5ccc(O)cc65)C(=O)COC[C@@H](c5c6c(c(C)c(OC(C)=O)c54)OCO6)N3[C@@H](O)[C@H](C2)N1C (some centres unmarked) [Compound 38]', 'A549', 1.06),
  ('COc1c(C)cc2c(c1O)[C@@H]1C3[C@@H]4SC[C@]5(NC(C)Cc6c5[nH]c5ccc(F)cc65)C(=O)COC[C@@H](c5c6c(c(C)c(OC(C)=O)c54)OCO6)N3[C@@H](O)[C@H](C2)N1C (some centres unmarked) [Compound 42]', 'A549', 1.88),
  ('COc1c(C)cc2c(c1O)[C@@H]1C3[C@@H]4SC[C@]5(C(=O)COC[C@@H](c6c7c(c(C)c(OC(C)=O)c64)OCO7)N3[C@@H](O)[C@H](C2)N1C)c1[nH]c2ccccc2c1CCN5C (some centres unmarked) [Compound 39]', 'A549', 3.37),
  ('COc1c(C)cc2c(c1O)[C@@H]1C3[C@@H]4SC[C@]5(C(=O)COC[C@@H](c6c7c(c(C)c(OC(C)=O)c64)OCO7)N3[C@@H](O)[C@H](C2)N1C)c1[nH]c2ccccc2c1CCN5C (some centres unmarked) [Compound 40]', 'A549', 0.85);

Moving on to the next compound.
[ask] Which measured log10 CC50 value corresponds to COc1c(C)cc2c(c1O)[C@@H]1C3[C@@H]4SC[C@]5(NC(C)Cc6c5[nH]c5ccc(O)cc65)C(=O)COC[C@@H](c5c6c(c(C)c(OC(C)=O)c54)OCO6)N3[C@@H](O)[C@H](C2)N1C (some centres unmarked) [Compound 37] ?
[reply] 2.14

---

tested on: NRK-52E, normal rat kidney cells; details: 24 h
Result type: Kidney

INSERT INTO results (compound, result) VALUES
  ('COc1c(C)cc2c(c1O)[C@@H]1C3[C@@H]4SC[C@]5(NC(C)Cc6c5[nH]c5ccc(O)cc65)C(=O)COC[C@@H](c5c6c(c(C)c(OC(C)=O)c54)OCO6)N3[C@@H](O)[C@H](C2)N1C (some centres unmarked) [Compound 38]', '9.85E−08'),
  ('COc1c(C)cc2c(c1O)[C@@H]1C3[C@@H]4SC[C@]5(NCCc6c5[nH]c5ccc(C)cc65)C(=O)COC[C@@H](c5c6c(c(C)c(OC(C)=O)c54)OCO6)N3[C@@H](O)[C@H](C2)N1C (some centres unmarked)', '4.19E−09');

[ask] Consider the compound shown here: COc1c(C)cc2c(c1O)[C@@H]1C3[C@@H]4SC[C@]5(NCCc6c5[nH]c5c(C)cccc65)C(=O)COC[C@@H](c5c6c(c(C)c(OC(C)=O)c54)OCO6)N3[C@@H](O)[C@H](C2)N1C (some centres unmarked) What is its recorded Kidney?
[reply] 3.56E−07

[ask] COc1c(C)cc2c(c1O)[C@@H]1C3[C@@H]4SC[C@]5(NC(C)Cc6c5[nH]c5ccc(F)cc65)C(=O)COC[C@@H](c5c6c(c(C)c(OC(C)=O)c54)OCO6)N3[C@@H](O)[C@H](C2)N1C (some centres unmarked) [Compound 42] , same question.
[reply] 1.12E−09

[ask] Proceed to COc1c(C)cc2c(c1O)[C@@H]1C3[C@@H]4SC[C@]5(C(=O)COC[C@@H](c6c7c(c(C)c(OC(C)=O)c64)OCO7)N3[C@@H](O)[C@H](C2)N1C)c1[nH]c2ccc(O)cc2c1CCN5C (some centres unmarked)
[reply] 7.78E−09

---

The entries below are paired with their reported Cell Viability (% inhibition).
system: (HEPG2); details: human, 24 h, 30 μM
The reply should be a number in % inhibition, with the unit left off.

INSERT INTO results (molecule, numeric_readout) VALUES
  ('COc1c(C)cc2c(c1O)[C@@H]1C3[C@@H]4SC[C@]5(NCCc6c5[nH]c5ccc(O)cc65)C(=O)COC[C@@H](c5c6c(c(C)c(OC(C)=O)c54)OCO6)N3[C@@H](O)[C@H](C2)N1C (stereo partly drawn)', 22),
  ('COc1c(C)cc2c(c1O)[C@@H]1C3[C@@H]4SC[C@]5(NCCc6c5[nH]c5c(C)cccc65)C(=O)COC[C@@H](c5c6c(c(C)c(OC(C)=O)c54)OCO6)N3[C@@H](O)[C@H](C2)N1C (stereo partly drawn)', 33);

Let's switch to this molecule now.
[ask] Data request, read-out Cell Viability (% inhibition), for COc1c(C)cc2c(c1OC(=O)OC(C)(C)C)[C@@H]1C3[C@@H]4SC[C@]5(NCCc6c5[nH]c5ccccc65)C(=O)COC[C@@H](c5c6c(c(C)c(OC(C)=O)c54)OCO6)N3[C@@H](O)[C@H](C2)N1C (stereo partly drawn)
[reply] 33

---

system: LOVO-DOX; experiment: cells; type: cell-based; conditions: read-out: LC50; LOVO-DOX
Result type: CC50

[ask] What value of CC50 has been reported for the following compound? COc1c(C)cc2c(c1O)[C@@H]1C3[C@@H]4SC[C@]5(NC(C)Cc6c5[nH]c5ccccc65)C(=O)COC[C@@H](c5c6c(c(C)c(OC(C)=O)c54)OCO6)N3[C@@H](O)[C@H](C2)N1C (stereo partly shown) [Compound 44]
[reply] ≥ 13 µM

---

test system: K562; test: cells; format: cell-based; conditions: K562, 48 hours exposure, SRB
Recorded measurements of TGI, one per entry
Answer with a number only, understood to be in Molar.

Guide cases for TGI, answers given:
INSERT INTO assay_data (compound, result_type, measurement_unit, numeric_readout) VALUES
  ('COc1c(C)cc2c(c1O)[C@@H]1C3[C@@H]4SC[C@]5(C(=O)COC[C@@H](c6c7c(c(C)c(OC(C)=O)c64)OCO7)N3[C@@H](O)[C@H](C2)N1C)c1[nH]c2ccccc2c1CCN5C (some centres unmarked) [Compound 39]', 'TGI', 'Molar', '4.46E−08'),
  ('COc1c(C)cc2c(c1O)[C@@H]1C3[C@@H]4SC[C@]5(NC(C)Cc6c5[nH]c5ccc(O)cc65)C(=O)COC[C@@H](c5c6c(c(C)c(OC(C)=O)c54)OCO6)N3[C@@H](O)[C@H](C2)N1C (some centres unmarked)', 'TGI', 'Molar', '8.18E−10'),
  ('COc1c(C)cc2c(c1O)[C@@H]1C3[C@@H]4SC[C@]5(NC(C)Cc6c5[nH]c5ccc(F)cc65)C(=O)COC[C@@H](c5c6c(c(C)c(OC(C)=O)c54)OCO6)N3[C@@H](O)[C@H](C2)N1C (some centres unmarked) [Compound 41]', 'TGI', 'Molar', '2.19E−09'),
  ('COc1c(C)cc2c(c1O)[C@@H]1C3[C@@H]4SC[C@]5(NC(C)Cc6c5[nH]c5ccc(F)cc65)C(=O)COC[C@@H](c5c6c(c(C)c(OC(C)=O)c54)OCO6)N3[C@@H](O)[C@H](C2)N1C (some centres unmarked) [Compound 42]', 'TGI', 'Molar', '9.15E−09');

Please turn your attention to the following entry.
[ask] Record request: TGI value, item COc1c(C)cc2c(c1O)[C@@H]1C3[C@@H]4SC[C@]5(C(=O)COC[C@@H](c6c7c(c(C)c(OC(C)=O)c64)OCO7)N3[C@@H](O)[C@H](C2)N1C)c1[nH]c2ccccc2c1CCN5C (some centres unmarked) [Compound 40]
[reply] 6.87E−09
